target: SCD1 (Homo sapiens, UniProt O00767)
Construct: host or cells: S. cerevisiae ole1Δ strain (W303 pdr1Δ pdr3Δ background), plasmid pRS316 with TDH3 promoter and CYC1 terminator
Sequence (O00767 whole entry): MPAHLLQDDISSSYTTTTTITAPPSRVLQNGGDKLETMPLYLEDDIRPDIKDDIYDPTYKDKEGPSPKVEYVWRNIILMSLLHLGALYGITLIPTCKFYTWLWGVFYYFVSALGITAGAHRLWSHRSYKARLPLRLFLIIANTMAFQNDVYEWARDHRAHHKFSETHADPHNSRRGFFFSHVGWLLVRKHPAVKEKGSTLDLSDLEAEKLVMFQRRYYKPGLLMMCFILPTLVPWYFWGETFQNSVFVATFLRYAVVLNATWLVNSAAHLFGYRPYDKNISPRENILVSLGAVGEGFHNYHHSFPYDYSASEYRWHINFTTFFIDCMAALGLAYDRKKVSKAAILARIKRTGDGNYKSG
method_description: Growth inhibition of humanized yeast strain expressing SCD1 as sole desaturase
Assay type: cell-based
settings: humanized yeast strain expressing SCD1
Hi there, I'd appreciate the recorded SCD1 % Max Inhibition for every entry that follows.
Give bare numbers, in %.

molecule | measurement
CC(C)c1ccc(C(=O)N2CCC(c3nc(N4CC5(COC5)C4)no3)CC2)cc1 [Compound 337] | 49.6
Cc1nn(C)c2cc(-c3noc(C4CCN(C(=O)Oc5ccccc5)CC4)n3)ccc12 [Compound 272] | 70.8
COc1ccc(-c2noc(C3CCN(C(=O)CNC(=O)C(C)C)CC3)n2)cc1OC [Compound 47] | 73.30
Cc1nn(C)c2cc(-c3noc(C4CCN(C(=O)CNC(=O)c5ccccn5)CC4)n3)ccc12 [Compound 153] | 75.76
CCOc1ccc(-c2noc(N3CCC(C(=O)N4CCN(C)C(c5ccccc5)C4)CC3)n2)cc1OC (stereo not shown) [Compound 113] | 55.33
Cn1c(=O)[nH]c2ccc(-c3noc(C4CCN(C(=O)CN5Cc6ccccc6C5=O)CC4)n3)cc21 [Compound 133] | 61.21
Cc1nn(C)c2cc(-c3noc(C4CCN(C(=O)COc5ccccc5)CC4)n3)ccc12 [Compound 266] | 12.42
Cn1ncc2ccc(-c3noc(C4CCN(C(=O)OC(C)(C)C)CC4)n3)cc21 [Compound 359] | 55.70
Cn1c(=O)[nH]c2ccc(-c3noc(C4CCN(C(=O)C5CC(=O)N(c6ccccc6)C5)CC4)n3)cc21 (stereo not shown) [Compound 134] | 107.77
COc1ccc(CN2CC(C(=O)N3CCC(c4nc(-c5ccc6c(C)nn(C)c6c5)no4)CC3)CC2=O)c(OC)c1 (stereo not shown) [Compound 124] | 88.87

Look up SCD1 % Max Inhibition for the entries below, preserving their order.
1. CCOc1cnc(-c2noc(C3CCN(C(=O)CN4Cc5ccccc5C4=O)CC3)n2)cc1OC [Compound 147]
2. CCOc1ccc(-c2noc(C3CCN(C(=O)CN4Cc5ccc(F)cc5C4=O)CC3)n2)cc1OC [Compound 177]
3. O=C(C1CC(=O)N(c2cccc(Cl)c2)C1)N1CCC(c2nc(-c3cnn(C4COC4)c3)no2)CC1 (stereo not shown) [Compound 340]

Output:
[74.14, 97.88, 55.0]

Each molecule below has a recorded value; state its SCD1 % Max Inhibition.
1. CCN1C(=O)COc2cc(-c3noc(C4CCN(C(=O)CNC(=O)c5ccccc5)CC4)n3)ccc21 [Compound 111]
2. COc1ccc(-c2nc(C3CCN(C(=O)CNC(=O)c4ccccc4)CC3)no2)cc1OC [Compound 36]
3. Cn1c(=O)n(C)c2cc(-c3noc(C4CCN(C(=O)CNC(=O)c5ccccn5)CC4)n3)ccc21 [Compound 230]
4. CCOC(=O)C(C)(C)n1cc2ccc(-c3noc(C4CCN(C(=O)CNC(=O)c5ccccc5)CC4)n3)cc2n1 [Compound 194]
5. Cc1nn(C)c2cc(-c3noc(C4CCN(C(=O)CNC(=O)c5cccc(C#N)c5)CC4)n3)ccc12 [Compound 322]
6. CCOc1cnc(-c2noc(C3CCN(C(=O)CNC(=O)c4ccccc4)CC3)n2)cc1OC [Compound 121]
7. COc1ccc(-c2noc(C3CCN(C(=O)C4CC(=O)N(c5cccc(C#N)c5)C4)CC3)n2)cc1OC(C)C (stereo not shown) [Compound 296]
8. COc1ccccc1C(=O)NCC(=O)N1CCC(c2nc(-c3ccc4c(C)nn(C)c4c3)no2)CC1 [Compound 152]

Output:
1: 76.39; 2: 64.67; 3: 78.48; 4: 74.07; 5: 73.6; 6: 94.06; 7: 86.6; 8: 83.39

Report SCD1 % Max Inhibition for every entry below.
1. Cc1nn(C)c2cc(-c3noc(C4CCN(C(=O)C5CC(=O)N(c6ccccn6)C5)CC4)n3)ccc12 (stereo not shown) [Compound 195]
2. CCc1nn(C)c2cc(-c3noc(C4CCN(C(=O)CNC(=O)c5ccccc5)CC4)n3)ccc12 [Compound 309]
3. CC(C)n1ncc2ccc(-c3noc(C4CCN(C(=O)CNC(=O)c5ccccc5)CC4)n3)cc21 [Compound 171]
4. CCOc1ccc(-c2noc(C3CCN(C(=O)CN4Cc5ccccc5C4=O)CC3)n2)nc1OC [Compound 142]
5. CC(C)n1cc2ccc(-c3noc(C4CCN(C(=O)OC(C)(C)C)CC4)n3)cc2n1 [Compound 277]
6. COc1ccc(-c2noc(C3CCN(C(=O)CNC(=O)N4CCCCC4)CC3)n2)cc1OC [Compound 143]
7. Cc1nn(C)c2cc(-c3noc(N4CCN(C(=O)c5ccccc5C(F)(F)F)CC4)n3)ccc12 [Compound 295]
8. CC(C)c1ccc(C(=O)N2CCC(c3nc(C(=O)Nc4cnn(C)c4)no3)CC2)cc1 [Compound 285]

Output:
[75.08, 80.6, 74.21, 80.83, 76.49, 79.38, 14.4, 45.62]

Lab note: each molecule below needs its SCD1 % Max Inhibition filled in.
1. CC(C)n1ncc2cc(-c3noc(C4CCN(C(=O)CNC(=O)c5ccccc5)CC4)n3)ccc21 [Compound 228]
2. Cn1c(=O)[nH]c2ccc(-c3noc(C4CCN(C(=O)CNC(=O)c5ccccc5)CC4)n3)cc21 [Compound 162]

Output:
[51.80, 84.54]
